assay: Metabolic stability in dog liver microsomes; type: in vitro ADME; conditions: liver microsomes 0.5 mg/mL, NADPH, 1 μM compound, read-out: Dog microsomal T1/2

Compound	half-life at 1 μM / h
CCNC(=O)c1cc2c(-c3cc(C(C)(C)O)ccc3Oc3c(C)cc(F)cc3C)cn(C)c(=O)c2[nH]1 [compound 1, reference compound]	1.13
CCNC(=O)c1cc2c(=O)n(C)cc(-c3cc(C(C)(C)O)ccc3Oc3c(C)cc(F)cc3C)c2[nH]1	3.25
Cc1cc(F)cc(C)c1Oc1ccc(C(C)(C)O)cc1-c1cn(C)c(=O)c2cc(C(=O)NCC(F)F)[nH]c12 [Embodiment 11]	6.72
Cc1cc(F)cc(C)c1Oc1ccc(C(C)(C)O)cc1-c1cn(C)c(=O)c2cc(C(=O)NC3CC(F)(F)C3)[nH]c12 [Embodiment 18]	6.67
